This section presents molecules with their documented % Inhibition values.
- Tested on: Plasmodium falciparum
- Assay protocol: Primary screen in NF54 nanoGlo assay, in single point, at 2uM, 72h
- Format: functional, Erythrocyte
- Recorded conditions: timepoint 72 hour
Among all 150,000 compounds or so, about 540 (0.36%) showed an effect of 50% or more. The sample holds strong results, similar compounds and a random draw of the others, so the mix is not that of the screen.
Assay endpoint: % Inhibition

structure_as_smiles=COc1ccc(NC(=O)CN2CC=C(c3cnn(C)c3)CC2)cc1Cl assay_endpoint="% Inhibition" result=-9%
structure_as_smiles=O=C(c1cc(F)cc(F)c1)N1CCC2(CC1)N(c1ccccc1)C(=O)CS2(=O)=O assay_endpoint="% Inhibition" result=-15%
structure_as_smiles=Fc1cc(CNCC(F)F)ccc1Cl assay_endpoint="% Inhibition" result=-7%
structure_as_smiles=COCCN1C[C@@H]2CC[C@H]1CN(C(=O)c1cc(C(C)C)on1)C2 assay_endpoint="% Inhibition" result=4%
structure_as_smiles=CN(C)c1ccnc(N2C[C@@H](c3ccc4c(c3)OCO4)[C@@H]3[C@H]2C2CCN3CC2)n1 assay_endpoint="% Inhibition" result=-7%
structure_as_smiles=CN(Cc1ccccc1)C[C@H]1C[N@@]2CC[C@H]1C[C@@H]2CNC(=O)c1ccccc1 assay_endpoint="% Inhibition" result=11%
structure_as_smiles=CCCS(=O)(=O)Nc1ccc(=O)n2c1[C@@H]1C[C@@H](CN(C(=O)Nc3ccc(F)cc3)C1)C2 assay_endpoint="% Inhibition" result=27%
structure_as_smiles=COCCn1ccc(C(=O)N[C@H]2CCc3nc(C(C)C)nn3C2)n1 assay_endpoint="% Inhibition" result=71%
structure_as_smiles=CCc1cccc(N(C(=O)c2ccc(NC(C)=O)cc2)C2(C(=O)NCc3ccccc3)CCN(C(C)=O)CC2)c1 assay_endpoint="% Inhibition" result=0%
structure_as_smiles=Cn1nc(C(=O)N2CCC3(CC2)OCCO3)c2ccccc2c1=O assay_endpoint="% Inhibition" result=-14%
structure_as_smiles=Cc1sc2ncnc(N3CCN4CCC[C@H]4C3)c2c1C assay_endpoint="% Inhibition" result=-5%

Recorded values, source ChEMBL document CHEMBL4888484.
